Target: T1, Human CXCR2 (human, UniProt P25025 1-360)
T1 sequence: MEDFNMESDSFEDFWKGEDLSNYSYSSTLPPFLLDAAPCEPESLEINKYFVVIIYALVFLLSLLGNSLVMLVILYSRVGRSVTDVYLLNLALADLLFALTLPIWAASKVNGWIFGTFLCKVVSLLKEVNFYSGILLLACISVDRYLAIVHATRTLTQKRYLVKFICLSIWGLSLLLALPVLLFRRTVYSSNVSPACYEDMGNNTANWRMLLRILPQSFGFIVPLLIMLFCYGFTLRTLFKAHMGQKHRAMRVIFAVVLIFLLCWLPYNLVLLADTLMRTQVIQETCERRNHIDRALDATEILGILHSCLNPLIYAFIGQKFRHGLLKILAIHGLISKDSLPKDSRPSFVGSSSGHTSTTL
Assay: cell-based or functional assay
endpoint.label: FLIPR IC50, GRO-α induced intracellular calcium release (nM)
Numeric only. Scale: nM

CXCR20031 (bispecific antibody, not shown: small tags and cut ends) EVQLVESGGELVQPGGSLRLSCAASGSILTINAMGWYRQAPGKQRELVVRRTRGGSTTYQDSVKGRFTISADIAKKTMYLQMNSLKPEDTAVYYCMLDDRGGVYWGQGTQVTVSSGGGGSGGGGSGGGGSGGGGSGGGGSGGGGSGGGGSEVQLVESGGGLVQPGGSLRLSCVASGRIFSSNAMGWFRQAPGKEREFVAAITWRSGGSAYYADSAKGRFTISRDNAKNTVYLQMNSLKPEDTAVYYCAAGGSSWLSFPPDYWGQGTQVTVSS	15.2

// moving on: another record for FLIPR IC50, GRO-α induced intracellular calcium release
Q: What does the record list as FLIPR IC50, GRO-α induced intracellular calcium release for CXCR20023 (bispecific antibody, not shown: small tags and cut ends) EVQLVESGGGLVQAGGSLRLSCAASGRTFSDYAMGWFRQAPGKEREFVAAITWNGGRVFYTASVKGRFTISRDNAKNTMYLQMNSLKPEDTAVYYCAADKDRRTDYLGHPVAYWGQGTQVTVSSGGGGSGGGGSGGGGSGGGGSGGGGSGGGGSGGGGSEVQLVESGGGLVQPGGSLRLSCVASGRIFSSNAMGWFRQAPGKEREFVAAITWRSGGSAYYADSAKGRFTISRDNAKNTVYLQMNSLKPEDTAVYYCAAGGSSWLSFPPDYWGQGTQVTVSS ?
A: 14.8
